run_description: MRT (0 to t) in Sprague-Dawley rat at 20 mg/kg, po by UPLC analysis
Type: ADME, organism-based
experimental_context: in vivo
readout_label: MRT last (h)
Numeric answer only, unit h assumed.

// query MRT last value for entry Nc1ncnc2c1c(-c1ccc(Oc3ccccc3)cc1)nn2C1CCN(C(=O)CN2CCN(CC3CN(c4ccc5c(c4)C(=O)N(C4CCC(=O)NC4=O)C5=O)C3)CC2)CC1 (stereo unspecified) 4.95

====

run_description: AUC (0 to infinity) in Sprague-Dawley rat at 20 mg/kg, po by UPLC analysis
Type: ADME, organism-based
experimental_context: in vivo
readout_label: AUC(0-inf) (µg·h/mL)
Entry rule: numbers only, all in µg·h/mL.

Bench note: what AUC(0-inf) did Nc1ncnc2c1c(-c1ccc(Oc3ccccc3)cc1)nn2C1CCN(C(=O)CN2CCN(CC3CN(c4ccc5c(c4)C(=O)N(C4CCC(=O)NC4=O)C5=O)C3)CC2)CC1 (stereo unspecified) show? 0.029

====

test_system: Protein cereblon/Tyrosine-protein kinase BTK (Homo sapiens, UniProt Q06187+Q96SW2)
Sequence (Q06187 2-659 limits assumed): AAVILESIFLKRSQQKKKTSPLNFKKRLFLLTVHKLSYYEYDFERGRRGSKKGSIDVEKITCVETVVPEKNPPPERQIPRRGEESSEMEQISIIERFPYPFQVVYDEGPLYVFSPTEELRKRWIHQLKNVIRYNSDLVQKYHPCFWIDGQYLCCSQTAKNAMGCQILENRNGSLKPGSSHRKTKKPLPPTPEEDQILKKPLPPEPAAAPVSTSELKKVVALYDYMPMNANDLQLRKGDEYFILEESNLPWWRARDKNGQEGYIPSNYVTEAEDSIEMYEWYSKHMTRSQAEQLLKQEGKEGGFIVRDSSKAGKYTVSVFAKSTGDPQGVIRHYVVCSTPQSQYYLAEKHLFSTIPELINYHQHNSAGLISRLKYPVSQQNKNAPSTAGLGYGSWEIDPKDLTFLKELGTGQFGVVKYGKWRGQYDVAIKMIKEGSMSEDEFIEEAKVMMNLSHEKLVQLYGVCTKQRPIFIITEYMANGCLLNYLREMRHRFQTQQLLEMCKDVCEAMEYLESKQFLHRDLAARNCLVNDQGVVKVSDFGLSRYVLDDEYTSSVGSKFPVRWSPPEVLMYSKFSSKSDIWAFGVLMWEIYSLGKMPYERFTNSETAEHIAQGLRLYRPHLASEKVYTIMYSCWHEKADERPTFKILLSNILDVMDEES
Sequence (Q96SW2 whole entry partner): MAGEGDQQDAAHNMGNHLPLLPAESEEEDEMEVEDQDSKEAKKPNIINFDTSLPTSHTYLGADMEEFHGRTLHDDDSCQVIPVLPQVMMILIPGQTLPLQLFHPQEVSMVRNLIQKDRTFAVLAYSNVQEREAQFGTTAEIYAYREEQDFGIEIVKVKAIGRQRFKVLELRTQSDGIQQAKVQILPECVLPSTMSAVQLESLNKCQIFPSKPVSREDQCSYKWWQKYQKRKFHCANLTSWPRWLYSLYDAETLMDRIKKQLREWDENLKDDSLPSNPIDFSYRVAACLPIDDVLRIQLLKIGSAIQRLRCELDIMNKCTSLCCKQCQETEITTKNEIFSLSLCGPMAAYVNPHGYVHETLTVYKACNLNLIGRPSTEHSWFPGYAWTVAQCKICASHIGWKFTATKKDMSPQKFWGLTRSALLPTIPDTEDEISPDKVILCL
run_description: PROTAC activity at CRBN/BTK in human Ramos cells assessed as induction of BTK degradation by measuring maximal efficacy incubated for 24 hrs by Western blot analysis relative to control
Type: cell-based
readout_label: Emax (%)
Use % as the unit, but write only the number.

Nc1ncnc2c1c(-c1ccc(Oc3ccccc3)cc1)nn2C1CCN(C(=O)c2ccc(N3CCN(c4ccc5c(c4)C(=O)N(C4CCC(=O)NC4=O)C5=O)CC3)nc2)CC1 (stereo not drawn) : 97.8

Record request: Emax value, item Nc1ncnc2c1c(-c1ccc(Oc3ccccc3)cc1)nn2C1CCN(Cc2ccc(C#CC3CCN(c4ccc5c(c4)C(=O)N(C4CCC(=O)NC4=O)C5=O)CC3)nc2)CC1 (stereo not drawn) 97.8

Quick one: Emax of Nc1ncnc2c1c(-c1ccc(Oc3ccccc3)cc1)nn2C1CCN(C(=O)CN2CCN(CC3CCN(c4cccc5c4C(=O)N(C4CCC(=O)NC4=O)C5=O)CC3)CC2)CC1 (stereo not drawn) ? 99.4

Item Nc1ncnc2c1c(-c1ccc(Oc3ccccc3)cc1)nn2C1CCN(CCOCCOCC(=O)Nc2ccc3c(c2)C(=O)N(C2CCC(=O)NC2=O)C3=O)CC1 (stereo not drawn) has what recorded Emax? 92.4

====

run_description: Cmax in Sprague-Dawley rat at 2 mg/kg, iv measured after 48 hrs by UPLC analysis
Format: ADME, organism-based
experimental_context: in vivo
readout_label: Cmax
Your answer should be a number followed by the unit of measure.

Fill in the blank: the reported Cmax of Nc1ncnc2c1c(-c1ccc(Oc3ccccc3)cc1)nn2C1CCN(C(=O)CN2CCN(CC3CN(c4ccc5c(c4)C(=O)N(C4CCC(=O)NC4=O)C5=O)C3)CC2)CC1 (stereo unspecified) is ____. 1890 ng/mL

====

run_description: Half-life in Sprague-Dawley rat at 2 mg/kg, iv measured after 48 hrs by UPLC analysis
Type: ADME, organism-based
experimental_context: in vivo
readout_label: half-life (h)
Field format: number, assumed h, no unit text.

Looking for the measured half-life of Nc1ncnc2c1c(-c1ccc(Oc3ccccc3)cc1)nn2C1CCN(C(=O)CN2CCN(CC3CN(c4ccc5c(c4)C(=O)N(C4CCC(=O)NC4=O)C5=O)C3)CC2)CC1 (stereo unspecified) , can you help? 1.82

Data origin, for the record: ChEMBL document CHEMBL5625192
